In this section we review reported DC50 values for a set of molecules.
target: WEE1 (Homo sapiens, UniProt P30291+Q96SW2); construct: C-terminal ePL-tagged (DiscoverX, Fremont, CA) full-length WEE1 expression construct; expressed in transfected cells; host or cells: LentiX-HEK293T (Invitrogen), lentiviral transduction; co-expressing GSPT1-GN (G576N, lacking the first 158 amino acids); test: WEE1-ePL degradation assay (LentiX-WEE1-ePL-GSPT1-ND cells, InCELL Hunter luminescence, 4 h); assay type: cell-based; details: 293T-LentiX WEE1-ePL cells, read-out: 293T-LentiX WEE1-ePL Degradation 4 hr (EC50)
Sequence (P30291 whole entry): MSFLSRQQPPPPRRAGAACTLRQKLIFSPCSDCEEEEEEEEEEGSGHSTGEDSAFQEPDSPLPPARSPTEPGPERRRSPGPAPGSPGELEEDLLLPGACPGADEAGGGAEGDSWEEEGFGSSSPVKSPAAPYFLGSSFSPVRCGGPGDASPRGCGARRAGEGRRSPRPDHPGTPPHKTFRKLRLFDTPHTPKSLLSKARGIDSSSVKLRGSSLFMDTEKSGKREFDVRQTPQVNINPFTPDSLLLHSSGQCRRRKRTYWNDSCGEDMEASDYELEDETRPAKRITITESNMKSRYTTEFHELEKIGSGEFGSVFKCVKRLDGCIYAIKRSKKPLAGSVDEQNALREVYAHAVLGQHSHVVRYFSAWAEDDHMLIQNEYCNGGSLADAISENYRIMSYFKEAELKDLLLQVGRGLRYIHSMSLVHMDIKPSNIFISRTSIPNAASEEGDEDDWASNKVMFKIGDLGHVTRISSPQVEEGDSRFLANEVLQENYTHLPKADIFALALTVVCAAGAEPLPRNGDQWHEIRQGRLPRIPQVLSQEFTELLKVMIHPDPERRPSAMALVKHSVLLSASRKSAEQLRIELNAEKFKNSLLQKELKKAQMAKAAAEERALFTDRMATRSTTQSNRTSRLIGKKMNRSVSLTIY
Sequence (Q96SW2 whole entry): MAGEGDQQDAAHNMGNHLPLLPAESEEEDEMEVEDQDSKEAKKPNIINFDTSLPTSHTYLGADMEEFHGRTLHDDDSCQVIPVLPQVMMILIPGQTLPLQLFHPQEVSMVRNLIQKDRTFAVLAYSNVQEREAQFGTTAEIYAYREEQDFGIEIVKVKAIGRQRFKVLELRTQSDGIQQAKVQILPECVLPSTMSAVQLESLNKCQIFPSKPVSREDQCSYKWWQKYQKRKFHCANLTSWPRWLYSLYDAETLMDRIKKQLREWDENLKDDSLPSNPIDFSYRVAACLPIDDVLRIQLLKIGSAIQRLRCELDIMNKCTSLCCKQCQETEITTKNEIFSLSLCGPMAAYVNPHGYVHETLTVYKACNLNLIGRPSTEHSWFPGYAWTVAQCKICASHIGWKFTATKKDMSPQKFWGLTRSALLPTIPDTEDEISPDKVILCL
Sequence (Q16531 whole entry partner): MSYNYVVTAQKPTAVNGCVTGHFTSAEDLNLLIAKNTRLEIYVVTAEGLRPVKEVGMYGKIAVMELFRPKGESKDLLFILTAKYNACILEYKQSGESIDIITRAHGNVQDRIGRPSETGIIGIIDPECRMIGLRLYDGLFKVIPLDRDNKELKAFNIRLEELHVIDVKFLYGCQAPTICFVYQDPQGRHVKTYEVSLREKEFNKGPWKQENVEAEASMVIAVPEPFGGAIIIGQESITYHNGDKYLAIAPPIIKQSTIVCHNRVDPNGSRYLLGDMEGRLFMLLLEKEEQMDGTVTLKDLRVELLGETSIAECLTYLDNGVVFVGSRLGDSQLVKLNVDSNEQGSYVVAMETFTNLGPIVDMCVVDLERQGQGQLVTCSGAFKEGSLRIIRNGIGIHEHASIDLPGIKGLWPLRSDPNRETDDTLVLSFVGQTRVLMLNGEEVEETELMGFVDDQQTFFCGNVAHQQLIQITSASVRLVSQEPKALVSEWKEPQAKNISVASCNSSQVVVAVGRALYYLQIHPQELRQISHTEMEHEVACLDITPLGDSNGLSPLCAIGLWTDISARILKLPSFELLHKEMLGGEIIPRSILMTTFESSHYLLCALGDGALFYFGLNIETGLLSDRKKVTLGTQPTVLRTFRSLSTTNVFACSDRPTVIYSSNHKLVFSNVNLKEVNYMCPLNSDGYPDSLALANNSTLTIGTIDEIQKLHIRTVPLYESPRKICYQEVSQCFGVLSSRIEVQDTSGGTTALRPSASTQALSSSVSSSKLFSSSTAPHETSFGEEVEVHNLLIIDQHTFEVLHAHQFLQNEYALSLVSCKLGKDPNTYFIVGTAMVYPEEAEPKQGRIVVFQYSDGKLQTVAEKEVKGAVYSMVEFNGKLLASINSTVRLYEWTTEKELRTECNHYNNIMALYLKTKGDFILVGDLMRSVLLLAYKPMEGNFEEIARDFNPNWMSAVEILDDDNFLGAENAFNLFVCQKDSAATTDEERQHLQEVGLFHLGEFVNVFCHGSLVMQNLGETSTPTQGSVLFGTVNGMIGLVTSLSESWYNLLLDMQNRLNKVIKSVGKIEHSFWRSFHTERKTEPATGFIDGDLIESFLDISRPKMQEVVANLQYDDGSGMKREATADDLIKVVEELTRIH
A number alone suffices; assume nM.

Worked examples, 5 molecules total:
Cc1cccc2ncc(CN3CC[C@H](Oc4ccc5c(c4)CN(C4CCC(=O)NC4=O)C5=O)C3)cc12 (stereo partly drawn) ... 5.31
NC(=O)c1ccc2cc(CN3CC[C@H](Oc4ccc5c(c4)CN(C4CCC(=O)NC4=O)C5=O)C3)ccc2n1 (stereo partly drawn) ... 3.53
O=C1CCC(N2Cc3cc(O[C@@H]4CN(Cc5ccc6nc(C7CCOCC7)ccc6c5)CC4(F)F)ccc3C2=O)C(=O)N1 (stereo partly drawn) ... 39.1
O=C1CCC(N2Cc3cc(O[C@H]4CCN(Cc5ccc6nc(Cl)ccc6c5)C4)ccc3C2=O)C(=O)N1 (stereo partly drawn) ... 2.82
CO[C@H]1CC[C@@H](Oc2ccc3cc(CN4CC[C@H](Oc5ccc6c(c5)CN(C5CCC(=O)NC5=O)C6=O)C4)ccc3n2)CC1 (stereo partly drawn) ... 4.62

Exercise: So what's the measured DC50 for this one? O=C1CCC(N2Cc3cc(O[C@H]4CCN(Cc5ccc6nc(C7CCOCC7)ncc6c5)C4)ccc3C2=O)C(=O)N1 (stereo partly drawn)
Key: 32.6

Exercise: So what's the measured DC50 for this one? O=C1CCC(N2Cc3cc(O[C@H]4CCN(Cc5ccc6nc([C@H]7CCCOC7)ccc6c5)C4)ccc3C2=O)C(=O)N1 (stereo partly drawn)
Key: 3.33

Exercise: So what's the measured DC50 for this one? CC1(C)C[C@H](c2ncc3cc(CN4CC[C@H](Oc5ccc6c(c5)CN(C5CCC(=O)NC5=O)C6=O)C4)ccc3n2)CCO1 (stereo partly drawn)
Key: 65

Exercise: So what's the measured DC50 for this one? O=C1CCC(N2Cc3cc(O[C@H]4CCN(Cc5ccc6nc(N7C[C@H]8C[C@@H](C7)O8)ncc6c5)C4)ccc3C2=O)C(=O)N1 (stereo partly drawn)
Key: 20.2

Exercise: So what's the measured DC50 for this one? O=C1CCC(N2Cc3cc(O[C@H]4CCN(Cc5ccc6nc(N7CC[C@]78CCOC8)ncc6c5)C4)ccc3C2=O)C(=O)N1 (stereo partly drawn)
Key: 19.5

Exercise: So what's the measured DC50 for this one? Cc1cc(O)c2cc(CN3CC[C@H](Oc4ccc5c(c4)CN(C4CCC(=O)NC4=O)C5=O)C3)ccc2n1 (stereo partly drawn)
Key: 528

Exercise: So what's the measured DC50 for this one? Cc1ccc2cc(CN3C[C@@H](Oc4ccc5c(c4)CN(C4CCC(=O)NC4=O)C5=O)C[C@@H]3C)ccc2n1 (stereo partly drawn)
Key: 83.9

Exercise: So what's the measured DC50 for this one? CN1CCc2ncc(CN3CC[C@H](Oc4ccc5c(c4)CN(C4CCC(=O)NC4=O)C5=O)C3)cc2C1 (stereo partly drawn)
Key: 216

Exercise: So what's the measured DC50 for this one? "O=C1CC[C@H](N2Cc3cc(O[C@H]4CCN(Cc5cc(C(F)(F)F)c6nc(C7CCOCC7)ccc6c5)C4)ccc3C2=O)C(=O)N1"
Key: 2.48

Exercise: So what's the measured DC50 for this one? CO[C@H]1C[C@H](c2ccc3cc(CN4CC[C@H](Oc5ccc6c(c5)CN(C5CCC(=O)NC5=O)C6=O)C4)ccc3n2)C1 (stereo partly drawn) [drawing 578]
Key: 3.61

###

molecular target: WEE1 (Homo sapiens, UniProt P30291+Q96SW2); construct: C-terminal ePL-tagged (DiscoverX, Fremont, CA) full-length WEE1 expression construct; expressed in transfected cells; host or cells: LentiX-HEK293T (Invitrogen), lentiviral transduction; co-expressing GSPT1-GN (G576N, lacking the first 158 amino acids); assay: WEE1-ePL degradation assay (LentiX-WEE1-ePL-GSPT1-ND cells, InCELL Hunter luminescence, 4 h); assay type: cell-based; conditions: 293T-LentiX WEE1-ePL cells, read-out: 293T-LentiX WEE1-ePL Degradation 4 hr (EC50)
In this section we review reported DC50 values for a set of compounds.
A number alone suffices; assume nM.

Worked examples, 6 compounds total:
O=C1CCC(N2Cc3cc(O[C@H]4CCN(Cc5cc6c(cn5)OCC6)C4)ccc3C2=O)C(=O)N1 (stereo partly shown) ... 20.8
O=C1CC[C@H](N2Cc3cc(O[C@@H]4CN(Cc5cc6ccc(C7CCOCC7)cc6cn5)CC4(F)F)ccc3C2=O)C(=O)N1 ... 2.76
O=C1CCC(N2Cc3cc(O[C@H]4CCN(Cc5cnc6ccccn56)C4)ccc3C2=O)C(=O)N1 (stereo partly shown) ... 150
O=C1CCC(N2Cc3cc(O[C@H]4CCN(Cc5ccc6ncc(N7CCOCC7)cc6c5)C4)ccc3C2=O)C(=O)N1 (stereo partly shown) ... 3.19
COc1nc2ccccc2cc1CN1CC[C@H](Oc2ccc3c(c2)CN(C2CCC(=O)NC2=O)C3=O)C1 (stereo partly shown) ... 18.3
CNC1(c2ccc3cc(CN4CC[C@H](Oc5ccc6c(c5)CN(C5CCC(=O)NC5=O)C6=O)C4)ccc3n2)COC1 (stereo partly shown) ... 37.6

Exercise: So what's the measured DC50 for this one? O=C1CCC(N2Cc3cc(O[C@H]4CCN(Cc5ccc6nc(C7COC7)ccc6c5)C4)ccc3C2=O)C(=O)N1 (stereo partly shown)
Key: 3.79

Exercise: So what's the measured DC50 for this one? O=C1CCC(N2Cc3cc(O[C@H]4CCN(Cc5cc6cnccc6cn5)C4)ccc3C2=O)C(=O)N1 (stereo partly shown)
Key: 39.9

Exercise: So what's the measured DC50 for this one? "O=C1CC[C@H](N2Cc3cc(O[C@H]4CCN(Cc5ccc6ncccc6c5)C4)ccc3C2=O)C(=O)N1"
Key: 7.42

###

biological target: WEE1 (Homo sapiens, UniProt P30291+Q96SW2); construct: C-terminal ePL-tagged (DiscoverX, Fremont, CA) full-length WEE1 expression construct; expressed in transfected cells; host or cells: LentiX-HEK293T (Invitrogen), lentiviral transduction; co-expressing GSPT1-GN (G576N, lacking the first 158 amino acids); test: WEE1-ePL degradation assay (LentiX-WEE1-ePL-GSPT1-ND cells, InCELL Hunter luminescence, 4 h); format: cell-based; settings: 293T-LentiX WEE1-ePL cells, lower limit of the fit (0 = luciferase inhibitor, Ymax = DMSO control)
MEASURED PROPERTY: 293T-LentiX WEE1-ePL Degradation 4 hr (Ymin)
Hey, just send me the number, nothing else.

NCc1cccc(COc2ccccc2CN2CC[C@H](Oc3ccc4c(c3)CN(C3CCC(=O)NC3=O)C4=O)C2)c1 (some centres unmarked) ... 87.63
CO[C@@H]1CC[C@H](c2ccc3cc(CN4CC[C@H](Oc5ccc6c(c5)CN(C5CCC(=O)NC5=O)C6=O)C4)ccc3n2)C1 (some centres unmarked) ... 29.67
O=C1CC[C@H](N2Cc3cc(O[C@H]4CCN(Cc5cc6ccc(C7CCOCC7)cc6cn5)C4)ccc3C2=O)C(=O)N1 ... 33.42
CC1(C)CN(c2ccc3cc(CN4CC[C@H](Oc5ccc6c(c5)CN(C5CCC(=O)NC5=O)C6=O)C4)ccc3n2)CCO1 (some centres unmarked) ... 32
N#Cc1ccc2cc(CN3CC[C@H](Oc4ccc5c(c4F)CN(C4CCC(=O)NC4=O)C5=O)C3)ccc2n1 (some centres unmarked) ... 47

Exercise: So what's the measured 293T-LentiX WEE1-ePL Degradation 4 hr (Ymin) for this one? CC1(C)COCCN1c1ccc2cc(CN3CC[C@H](Oc4ccc5c(c4)CN(C4CCC(=O)NC4=O)C5=O)C3)ccc2n1 (some centres unmarked)
Key: 34

Exercise: So what's the measured 293T-LentiX WEE1-ePL Degradation 4 hr (Ymin) for this one? O=C1CCC(N2Cc3cc(O[C@H]4CCN(Cc5ccc6nnccc6c5)C4)ccc3C2=O)C(=O)N1 (some centres unmarked)
Key: 26.65

Exercise: So what's the measured 293T-LentiX WEE1-ePL Degradation 4 hr (Ymin) for this one? Cc1ccc2cc(CN3CC[C@H](Oc4ccc5c(c4)CN(C4CCC(=O)NC4=O)C5=O)C3)ccc2n1 (some centres unmarked)
Key: 30.3

###

molecular target: WEE1 (Homo sapiens, UniProt P30291+Q96SW2); construct: C-terminal ePL-tagged (DiscoverX, Fremont, CA) full-length WEE1 expression construct; expressed in transfected cells; host or cells: LentiX-HEK293T (Invitrogen), lentiviral transduction; co-expressing GSPT1-GN (G576N, lacking the first 158 amino acids); experiment: WEE1-ePL degradation assay (LentiX-WEE1-ePL-GSPT1-ND cells, InCELL Hunter luminescence, 4 h); format: cell-based; conditions: 293T-LentiX WEE1-ePL cells, read-out: 293T-LentiX WEE1-ePL Degradation 4 hr (EC50)
Mark Yes only for DC50 values smaller than 10 nM; exact matches and larger values are No.

Would you please look over these solved cases?
O=C1CCC(N2Cc3cc(O[C@H]4CCN(Cc5ccc6nccnc6c5)C4)ccc3C2=O)C(=O)N1 (stereo partly shown) ... No
O=C1CCC(N2Cc3cc(O[C@H]4CCN(Cc5ccc6cnccc6n5)C4)ccc3C2=O)C(=O)N1 (stereo partly shown) ... No
O=C1CCC(N2Cc3cc(O[C@H]4CCN(Cc5ccc6nc(NC7CCOCC7)ccc6c5)C4)ccc3C2=O)C(=O)N1 (stereo partly shown) ... No
O=C1CCC(N2Cc3cc(O[C@H]4CCN(Cc5ccc6nc(N7[C@@H]8COC[C@H]7C8)ccc6c5)C4)ccc3C2=O)C(=O)N1 (stereo partly shown) ... Yes
COC[C@@H]1CN(Cc2ccc3nc(N4CCOCC4)ncc3c2)C[C@H]1Oc1ccc2c(c1)CN([C@H]1CCC(=O)NC1=O)C2=O ... Yes
O=C1CCC(N2Cc3cc(O[C@H]4CCN(Cc5ccc6nc(N7CC8(COC8)C7)ccc6c5)C4)ccc3C2=O)C(=O)N1 (stereo partly shown) ... Yes

Now look at this one.
Exercise: is_below(DC50, 10 nM) for O=C1CCC(N2Cc3cc(O[C@@H]4CCN(Cc5cnc6ccccc6c5)C4)ccc3C2=O)C(=O)N1 (stereo in doubt) ?
Key: Yes
